- Experimental System: Tau
- Assay Notes: rat primary cortical neurons, FLIPR, 25 uM ASO
Bases are written 5' to 3'; sugars and linkages follow in the same order, as letters with counts (s phosphorothioate, o phosphodiester; PS: all linkages phosphorothioate). The collection does not say whether C is 5-methylated. l = locked nucleic acid (LNA); d = 2'-deoxy (DNA)
The reader will find reported calcium oscillation score values listed item by item below.

{"Monomer Sequence": "AAACCATGATCTTAGG (sugars l3 d10 l3, PS)", "calcium oscillation score": "81.3 % of control"}
{"Monomer Sequence": "ATCCAAGTCAATGCCTGGCT (sugars l3 d14 l3, PS)", "calcium oscillation score": "34.2 % of control"}

Qu. Report calcium oscillation score for AATAAGAAAGGAACGC (sugars l4 d9 l3, PS) tested on Tau.
Ans. 102 % of control

Qu. Moving on to the next sequence: TTTTCTCAATGTAACCT (sugars l4 d9 l4, PS)
Ans. 80.5 % of control

Qu. Moving on to the next sequence: CCCGTCTTTGCTTTTACTGA (sugars l3 d14 l3, PS)
Ans. 0 % of control

Qu. Moving on to the next sequence: CAAGAGGCACAAGT (sugars l3 d8 l3, PS)
Ans. 36.2 % of control

Qu. Moving on to the next sequence: GCAATAGCAAACAGG (sugars l3 d9 l3, PS)
Ans. 40.8 % of control

Qu. Moving on to the next sequence: CCCTTAATTTCACCCT (sugars l3 d10 l3, PS)
Ans. 80.9 % of control
